- Test system: CAKI-1
- experiment-summary: NCI tumour cell line growth inhibition, 48 h
Where a name gives a salt, the structure may show the parent alone. Activity calls are given as the source filed them. No stated cut-off is given here; in the data, active = GI50 up to about 1.1 µM and inactive = higher.
Exercise: for every item that follows, state its recorded GI50.

- compound: "CCOC(=O)/C=C/C(=O)O/C=C/[N+](=O)[O-]"
  GI50: "33.3 µM (inactive)"
- compound: "CO/N=C(/C(=O)OC)c1ccccc1COc1cccc(C(F)(F)F)c1"
  GI50: "12.1 µM (inactive)"
- compound: "CN(C)CCCN1c2ccccc2Sc2ccc(C(F)(F)F)cc21 [TRIFLUPROMAZINE HYDROCHLORIDE]"
  GI50: "11.8 µM (inactive)"
- compound: "COC(=O)C1C(O)C(C)C(O)C(C)/C=C\\C=C(C)C(=O)Nc2c(C)c(OC(C)=O)c3c(c2O)C(=O)C(C)=C2OCOC(=C23)C(C)=CC(C)(O)C(O)C(C)C1O (stereo not given)"
  GI50: "33.7 µM (inactive)"

Now consider a different compound.
Lab request: please report GI50 under test system CAKI-1 for CC(=O)NC1C(OCc2ccccc2)OC(CO)C(O)C1OC(C)C(=O)NC(C(=O)NC(CCC(=O)NCCCCNc1c2ccccc2nc2cccc([N+](=O)[O-])c12)C(N)=O)C(C)C (stereo not given) 3.37 µM (inactive)
